# Experimental target: Fructose-bisphosphate aldolase (Mycobacterium tuberculosis (strain ATCC 25618 / H37Rv))
# Experiment summary: Mtb FBA enzyme inhibitors, primary screen, biochemical, fluorescence, strain H37Rv (AID 588726);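 note: 0% = vehicle and 100% = reference inhibitor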
# Condition info: purified M. tuberculosis FBA, fluorescence read-out, at 1 µM, hits give high values
The whole screen tested about 360,000 compounds, of which about 8,200 (2.3%) were called active. For the sample, actives were picked, then their nearest neighbours and some compounds at random.
# Lookup of reported inhibition keyed by entry

{"columns": ["Molecule", "inhibition"],
 "data": [
  ["CCN1CCN(C(=O)c2ccc(CN(c3ccc(C)c(C)c3)S(C)(=O)=O)cc2)CC1", "-1.53% (inactive)"]
]}

Documented inhibition of CCOC(=O)c1cc(C(C)C)sc1NC(=O)COC(=O)c1nccnc1N : 55.2% (active)

// field: inhibition; key: Cc1ccc(NC(=O)CSc2nnc(CNC(=O)c3ccccc3F)o2)cc1 ; value = 0.75% (inactive)

The molecule identified as CCOC(=O)c1cc(C)sc1NC(=O)C1CCC1 registered its inhibition at 4.25% (inactive)

// recorded inhibition for Cc1cc(C(=O)OCC(=O)Nc2nnc(C(C)C)s2)c2ccccc2n1 : 1.64% (inactive)

// CCC12CN3CC(CC)(CN(C1)C31C(=O)N(C)c3ccc(C)cc31)C2=O (stereo unspecified) : inhibition value = -4.48% (inactive)

Provenance of the data: PubChem BioAssay AID588726
